Measured Target: Adenosine receptor A3 (Rattus norvegicus, UniProt P28647)
Sequence (P28647 whole entry): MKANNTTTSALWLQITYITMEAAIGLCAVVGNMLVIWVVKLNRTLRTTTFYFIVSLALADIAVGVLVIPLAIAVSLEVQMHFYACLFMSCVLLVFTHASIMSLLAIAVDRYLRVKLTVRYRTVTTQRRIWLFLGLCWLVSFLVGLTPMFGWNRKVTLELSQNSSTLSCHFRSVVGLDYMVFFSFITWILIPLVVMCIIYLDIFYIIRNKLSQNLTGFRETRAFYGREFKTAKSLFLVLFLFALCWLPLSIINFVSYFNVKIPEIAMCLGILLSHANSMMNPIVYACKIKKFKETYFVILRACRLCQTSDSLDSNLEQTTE
Kindly state pKi for each of the entries shown.
Give bare numbers, as −log10 of the molar value.

INSERT INTO assay_data (compound, measured_quantity, observed_result) VALUES
  ('CCNC(=O)[C@H]1OC(n2cnc3c(NC(=O)Nc4ccc(S(=O)(=O)Nc5ccccn5)cc4)ncnc32)[C@H](O)[C@@H]1O (some centres not stated)', 'pKi', 7.27);

Now look at this one.
// query What does the record list as pKi for CCNC(=O)[C@@H]1OC(n2cnc3c(NC(=O)Nc4ccc(S(=O)(=O)Nc5ncccn5)cc4)ncnc32)[C@@H](O)[C@H]1O (some centres not stated) ?
// result 6.39

// provenance: ChEMBL document CHEMBL1139581
